B1: Hairpin Ribozyme (parent)
chain: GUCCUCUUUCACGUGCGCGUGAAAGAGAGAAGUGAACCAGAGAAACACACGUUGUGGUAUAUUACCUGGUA

Variants of: B1
Experiment: self-cleavage, relative activity (ratio to wild type); higher = more cleavage; co-transcriptional
Property Label: self-cleavage
Numbers only.

Look over these answered cases.
{"columns": ["Chain", "Result Value"],
 "data": [
  ["GUCCUCUUUCACGUGCGCGUGAAAGAGAGAAGUGAACCAGAGAAACACACGUUGUGGUAUACUACAUGGUA [U62C C66A]", 0.13],
  ["GUUCUCUUUCACGUGCGCGUGAAAGAGAGAAGUGAACCAGCGAAACACACGUUGUGGUAUAUUACCUGGUA [C3U A41C]", 0.983],
  ["GUCCUCGUUCACGUGCGCGUGAAAGAGAGAAGUGAACCAGAGAAAGACACGUUGUGGUAUAUUACCUGGUA [U7G C46G]", 0.134],
  ["GUCCUCUUUCACGUGAGCGUGAAAGAGAGAAGUGAACCAGAGAAACACCCGUUGUGGUAUAUUACCUGGUA [C16A A49C]", 0.0771]
]}

Look up self-cleavage for the entries below, preserving their order.
1. GUCCUCUUUCACGUGCGCGUGAAAGAGAGAAGUGAUCCAGAGAAACACACGUUGUGGUAUAUUACAUGGUA [A36U C66A]
2. GUCCUCUUUCACGUGCGCAUGAAAGAGAGAAGUGAACCAGAGAAACACACGUUCUGGUAUAUUACCUGGUA [G19A G54C]
3. GACCUCUUUCACGUGCGCGUGAAAGAGAGAAGUGAACCAGAGAAACACACGUUGUGGUCUAUUACCUGGUA [U2A A59C]
4. GUCAUCUUUCACGUGCGCGUGAAAGAGAGAAGUGAACCAGAGGAACACACGUUGUGGUAUAUUACCUGGUA [C4A A43G]
5. GUCCUCUUUCAUGUGCGCGUAAAAGAGAGAAGUGAACCAGAGAAACACACGUUGUGGUAUAUUACCUGGUA [C12U G21A]

1: 0.114; 2: 0.403; 3: 0.0974; 4: 0.0748; 5: 0.748

Look up self-cleavage for the entries below, preserving their order.
1. GUCCUCUUUCACGUGCGCGUGUAAGAGAGGAGUGAACCAGAGAAACACACGUUGUGGUAUAUUACCUGGUA [A22U A30G]
2. GUCCUCUUUCACGUGCGCGUGAAAGAGAGAAGUGAACCAGAGAAACACACGUUGUGGUAUAGUGCCUGGUA [U62G A64G]
3. GUUCUCUUUCACGUGCGCGUGAAAUAGAGAAGUGAACCAGAGAAACACACGUUGUGGUAUAUUACCUGGUA [C3U G25U]
4. GUCCUCUUUCACGUGCGCGUGAAAGAGAGAAGUGGAUCAGAGAAACACACGUUGUGGUAUAUUACCUGGUA [A35G C37U]
5. GUGCUCUUUCACGUGCGCGUGAAAGAGAGAAGUGAACCAGAGAAACACACGUUGUGGUACAUUACCUGGUA [C3G U60C]
6. GUCCUCUUUCACGUGCGCGUGAAAGAGAGAAGUGAACCAUAUAAACACACGUUGUGGUAUAUUACCUGGUA [G40U G42U]
7. GUCCUCUUUCACGUGCGCGUGAAAGAGCGAAGUGAACCAGAGAAACACACGUUGUGUUAUAUUACCUGGUA [A28C G57U]

1: 0.159; 2: 0.166; 3: 0.187; 4: 0.302; 5: 0.314; 6: 0.116; 7: 0.0228
